These measurements were taken from ChEMBL document CHEMBL3763060.

Molecular target: Dual specificity calcium/calmodulin-dependent 3',5'-cyclic nucleotide phosphodiesterase 1B (Homo sapiens, UniProt Q01064)
Sequence (Q01064 whole entry): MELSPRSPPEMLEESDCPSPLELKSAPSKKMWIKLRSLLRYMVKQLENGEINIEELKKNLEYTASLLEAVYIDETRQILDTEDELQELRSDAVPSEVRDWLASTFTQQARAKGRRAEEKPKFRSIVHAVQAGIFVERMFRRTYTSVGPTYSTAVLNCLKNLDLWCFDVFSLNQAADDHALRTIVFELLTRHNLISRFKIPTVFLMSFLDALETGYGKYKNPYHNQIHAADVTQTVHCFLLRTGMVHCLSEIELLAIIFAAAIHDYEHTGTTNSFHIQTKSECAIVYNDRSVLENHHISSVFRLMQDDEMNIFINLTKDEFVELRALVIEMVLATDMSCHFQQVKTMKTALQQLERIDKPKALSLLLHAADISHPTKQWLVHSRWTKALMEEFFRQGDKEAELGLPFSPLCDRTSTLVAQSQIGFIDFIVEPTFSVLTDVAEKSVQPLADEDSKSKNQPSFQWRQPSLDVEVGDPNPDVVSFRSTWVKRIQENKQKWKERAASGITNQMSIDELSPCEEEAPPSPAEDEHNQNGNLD
Test: Inhibition of full length human recombinant PDE1B1 using [3H]-cAMP as substrate by scintillation proximity assay
pIC50: −log10 of the molar value.

| Compound | pIC50 |
| --- | --- |
| COc1ccc(C2=NN(C3CCCCCC3)C(=O)[C@@H]3CC=CC[C@H]23)cc1OCCCCOc1ccc(-c2nnn[nH]2)cc1 (racemic) | 5.40 |

* * *

Target: Class 1 phosphodiesterase PDEB1 (Trypanosoma brucei, UniProt Q8WQX9)
Sequence (Q8WQX9 whole entry): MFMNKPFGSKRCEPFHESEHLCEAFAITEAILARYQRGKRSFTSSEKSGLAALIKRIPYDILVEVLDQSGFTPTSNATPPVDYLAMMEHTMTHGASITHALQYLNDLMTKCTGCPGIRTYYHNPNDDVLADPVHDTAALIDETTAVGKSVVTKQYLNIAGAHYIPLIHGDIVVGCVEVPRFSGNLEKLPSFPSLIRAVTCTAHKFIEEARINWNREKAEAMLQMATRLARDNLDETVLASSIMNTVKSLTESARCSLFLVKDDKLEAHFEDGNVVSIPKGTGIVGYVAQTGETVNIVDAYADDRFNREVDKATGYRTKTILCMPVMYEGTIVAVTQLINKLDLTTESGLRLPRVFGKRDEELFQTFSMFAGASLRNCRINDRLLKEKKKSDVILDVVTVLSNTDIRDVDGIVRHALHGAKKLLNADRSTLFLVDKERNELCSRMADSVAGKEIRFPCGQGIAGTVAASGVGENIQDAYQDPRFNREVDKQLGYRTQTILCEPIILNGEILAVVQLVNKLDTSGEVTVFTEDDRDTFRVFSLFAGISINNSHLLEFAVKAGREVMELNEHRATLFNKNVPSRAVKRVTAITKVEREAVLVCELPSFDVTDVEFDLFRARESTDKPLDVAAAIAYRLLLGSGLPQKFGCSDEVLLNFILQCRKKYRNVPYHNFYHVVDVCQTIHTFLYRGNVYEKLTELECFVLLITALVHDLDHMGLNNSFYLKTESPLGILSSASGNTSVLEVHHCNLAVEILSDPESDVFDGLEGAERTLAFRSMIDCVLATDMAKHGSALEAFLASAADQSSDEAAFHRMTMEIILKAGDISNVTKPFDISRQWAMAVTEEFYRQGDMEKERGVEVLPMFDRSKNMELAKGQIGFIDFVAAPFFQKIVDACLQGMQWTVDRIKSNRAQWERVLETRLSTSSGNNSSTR
Assay: Inhibition of recombinant Trypanosoma brucei PDEB1 using [3H]-cAMP as substrate after 15 mins by scintillation proximity assay
Property Label: log10 IC50 (log10 of the value in nM)

| Compound | log10 IC50 |
| --- | --- |
| COc1ccc(C2=NNC(=O)[C@@H]3CC=CC[C@H]23)cc1OC (racemic) | 4.10 |
| COc1ccc(C2=NN(C3CCCCCC3)C(=O)[C@@H]3CC=CC[C@H]23)cc1OCCCCOc1ccc(-c2nnn(C)n2)cc1 (racemic) | 0.50 |
| COc1ccc(CCOc2cc(C3=NN(C4CCCCCC4)C(=O)[C@@H]4CC=CC[C@H]34)ccc2OC)cc1 (racemic) | 1.80 |
| COc1ccc(C2=NN(C3CCCCCC3)C(=O)[C@@H]3CC=CC[C@H]23)cc1OCc1cccc(OC)c1OC (racemic) | 1.90 |
| COc1ccc(C2=NN(C3CCCCCC3)C(=O)[C@@H]3CC=CC[C@H]23)cc1OCc1ccncc1 (racemic) | 2.20 |
| COc1ccc(C2=NN(C3CCCCCC3)C(=O)[C@@H]3CC=CC[C@H]23)cc1OCCCCOc1ccc(-n2ccnc2)cc1 (racemic) | 1.10 |

* * *

Target: 3',5'-cyclic-AMP phosphodiesterase 4B (Homo sapiens, UniProt Q07343)
Sequence (Q07343 whole entry): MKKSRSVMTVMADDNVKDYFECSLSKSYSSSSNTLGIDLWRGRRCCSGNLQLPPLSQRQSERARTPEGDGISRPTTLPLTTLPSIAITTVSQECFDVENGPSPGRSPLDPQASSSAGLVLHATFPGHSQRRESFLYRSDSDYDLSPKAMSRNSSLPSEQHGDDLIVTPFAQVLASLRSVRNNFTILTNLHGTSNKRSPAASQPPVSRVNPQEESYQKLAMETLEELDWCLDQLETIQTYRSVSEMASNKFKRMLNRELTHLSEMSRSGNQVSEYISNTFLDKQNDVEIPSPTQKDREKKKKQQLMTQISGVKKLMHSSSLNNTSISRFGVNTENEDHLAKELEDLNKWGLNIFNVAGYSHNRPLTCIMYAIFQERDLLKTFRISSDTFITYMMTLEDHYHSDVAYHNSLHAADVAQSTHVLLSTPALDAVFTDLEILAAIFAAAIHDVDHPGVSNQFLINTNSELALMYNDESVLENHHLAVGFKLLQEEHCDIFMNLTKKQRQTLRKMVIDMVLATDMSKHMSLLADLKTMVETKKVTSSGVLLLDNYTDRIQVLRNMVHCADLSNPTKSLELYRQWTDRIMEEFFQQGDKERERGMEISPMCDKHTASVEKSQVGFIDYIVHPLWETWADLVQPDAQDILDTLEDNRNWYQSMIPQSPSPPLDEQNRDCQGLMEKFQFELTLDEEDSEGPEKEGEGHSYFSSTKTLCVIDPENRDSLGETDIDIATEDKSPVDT
Experiment: Inhibition of full length human recombinant PDE4B2 using [3H]-cAMP as substrate by scintillation proximity assay
Property Label: IC50 (nM)

| Compound | Property Label | Measured |
| --- | --- | --- |
| COc1ccc(C2=NN(C3CCCCCC3)C(=O)[C@@H]3CC=CC[C@H]23)cc1OCCCCOc1ccc(-c2nnn[nH]2)cc1 (racemic) | IC50 | 0.501 |

* * *

Biological target: 3',5'-cyclic-AMP phosphodiesterase 4D (Homo sapiens, UniProt Q08499)
Sequence (Q08499 whole entry): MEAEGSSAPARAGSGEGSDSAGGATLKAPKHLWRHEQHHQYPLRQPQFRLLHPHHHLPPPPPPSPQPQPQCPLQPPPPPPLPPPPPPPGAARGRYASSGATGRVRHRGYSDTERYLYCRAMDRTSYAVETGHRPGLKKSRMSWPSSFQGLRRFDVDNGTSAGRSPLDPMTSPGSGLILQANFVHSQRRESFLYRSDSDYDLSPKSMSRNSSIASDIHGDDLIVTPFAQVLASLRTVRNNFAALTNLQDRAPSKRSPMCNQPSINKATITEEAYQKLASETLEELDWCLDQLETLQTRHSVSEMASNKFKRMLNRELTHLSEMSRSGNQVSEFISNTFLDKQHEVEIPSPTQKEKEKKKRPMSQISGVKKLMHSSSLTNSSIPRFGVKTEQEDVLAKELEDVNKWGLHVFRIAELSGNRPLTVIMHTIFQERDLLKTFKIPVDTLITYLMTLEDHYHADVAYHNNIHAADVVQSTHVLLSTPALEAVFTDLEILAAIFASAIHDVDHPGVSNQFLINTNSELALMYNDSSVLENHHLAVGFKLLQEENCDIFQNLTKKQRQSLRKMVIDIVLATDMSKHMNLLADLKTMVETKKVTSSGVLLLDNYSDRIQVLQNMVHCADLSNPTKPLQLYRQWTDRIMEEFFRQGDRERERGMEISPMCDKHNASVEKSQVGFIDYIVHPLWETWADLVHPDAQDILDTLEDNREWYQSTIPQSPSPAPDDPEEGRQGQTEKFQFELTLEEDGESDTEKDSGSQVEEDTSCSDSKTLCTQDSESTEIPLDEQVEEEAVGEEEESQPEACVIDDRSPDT
Experiment: Inhibition of full length human recombinant PDE4D3 using [3H]-cAMP as substrate by scintillation proximity assay

| Compound | Target Or Test System | IC50 |
| --- | --- | --- |
| COc1ccc(C2=NN(C3CCCCCC3)C(=O)[C@@H]3CC=CC[C@H]23)cc1OCCCCOc1ccc(-c2nnn[nH]2)cc1 (racemic) | 3',5'-cyclic-AMP phosphodiesterase 4D (Homo sapiens, UniProt Q08499) | 0.631 nM |

* * *

Assay: Cytotoxicity against human MRC5 cells assessed as growth inhibition
Assay type: cell-based
Reported CC50 values for a set of compounds
Property Label: CC50 (µM)

| Compound | Property Label | Reading Qualifier | Measured |
| --- | --- | --- | --- |
| COc1ccc(C2=NN(C3CCCCCC3)C(=O)[C@@H]3CC=CC[C@H]23)cc1OCCCCCc1ccccc1 (racemic) | CC50 | > | 63.1 |
| COc1ccc(C2=NN(C3CCCCCC3)C(=O)[C@@H]3CC=CC[C@H]23)cc1OCCCCn1cnc2ncncc21 (racemic) | CC50 | = | 39.8 |
| COc1ccc(C2=NN(C3CCCCCC3)C(=O)[C@@H]3CC=CC[C@H]23)cc1OCCCCOc1ccc(-c2nnn[nH]2)cc1 (racemic) | CC50 | = | 6.31 |
| COc1ccc(C2=NN(C3CCCCCC3)C(=O)[C@@H]3CC=CC[C@H]23)cc1OCc1ccncc1 (racemic) | CC50 | = | 15.8 |
| COc1ccc(C2=NN(C3CCCCCC3)C(=O)[C@@H]3CC=CC[C@H]23)cc1OCCc1ccc(N(C)C)cc1 (racemic) | CC50 | > | 63.1 |
| COc1ccc(CCOc2cc(C3=NN(C4CCCCCC4)C(=O)[C@@H]4CC=CC[C@H]34)ccc2OC)cc1 (racemic) | CC50 | > | 63.1 |
| COc1cc(COc2cc(C3=NN(C4CCCCCC4)C(=O)[C@@H]4CC=CC[C@H]34)ccc2OC)cc(OC)c1 (racemic) | CC50 | = | 12.6 |
| COc1ccc(C2=NN(C3CCCCCC3)C(=O)[C@@H]3CC=CC[C@H]23)cc1OCCO (racemic) | CC50 | = | 31.6 |
| COc1ccc(C2=NN(C3CCCCCC3)C(=O)[C@@H]3CC=CC[C@H]23)cc1OCc1cccc(OC)c1OC (racemic) | CC50 | = | 3.98 |
| COCCOc1cc(C2=NN(C3CCCCCC3)C(=O)[C@@H]3CC=CC[C@H]23)ccc1OC (racemic) | CC50 | = | 25.1 |
| COc1ccc(C2=NN(C3CCCCCC3)C(=O)[C@@H]3CC=CC[C@H]23)cc1OCCCCOc1ccc(-c2nnnn2C)cc1 (racemic) | CC50 | > | 63.1 |
| COc1ccc(C2=NN(C3CCCCCC3)C(=O)[C@@H]3CC=CC[C@H]23)cc1OCCCCOc1ccc(-c2nnn(C)n2)cc1 (racemic) | CC50 | > | 63.1 |
